Molecular target: T1, equine interleukin 5 with 8 × His-tag (Equus caballus, UniProt O02699)
T1 construct: equine interleukin 5, UniProt O02699; 134 amino acids of which the first 19 are the signal peptide; the gene was ordered without the signal peptide; The limits 20-134 follow from the printed length (134) and signal peptide (first 19); also called eqIL-5; eqIL-5-His; source: Expi293F suspension cells, purified (nickel-loaded Sepharose, dialyzed in 1 x PBS)
T1 sequence (O02699 20-134): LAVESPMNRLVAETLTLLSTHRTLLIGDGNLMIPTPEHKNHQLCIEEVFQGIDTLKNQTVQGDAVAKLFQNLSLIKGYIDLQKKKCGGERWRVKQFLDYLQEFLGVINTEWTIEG
Experiment: flow cytometry on cells; cellular in vitro inhibition assay: antibody (screening 1000 nM; titration 1000 nM-0.32 nM) pre-incubated with 5 nM eqIL-5 (related to dimer), then added to 5 x 10^5 eqIL-5 receptor expressing Expi293F cells for 45 min on ice, FACS buffer (2% FCS, 5 mM EDTA in PBS); bound eqIL-5 detected by Penta-His antibody and anti mouse Fc-APC; IC50 by Logistic5 fit; single measurements
Conditions: both partners purified
quantity.kind: IC50 (nM)
Write the number in nM without appending the unit.

# binder, IC50, nM
records = [
    ("NOL231-1-A3 (eqIgG6 format) (antibody, V domains shown, as the VH of m3 (NOL48-1-D5); as the VL of m3 (NOL48-1-D5) with H96N in the CDR3 of the VL; source: Expi293F suspension cells, purified (HiTrap Fibro PrismA or Protein G HP)) VH: QVQLQQSGGGVVQPGRSLRLSCAASGFTFSSYGMHWVRQAPGKGLEWVAVIWYDGSNKYYADSVKGRFTISRDNSKNTLYLQMNSLRAEDTAVYYCARGLYGRSYFDYWGQGTLVTVSS VL: SYELTQPPSVSVAPGQTAKIACEGDNIGSKSVHWYQQRPGQAPVLVVYDDTDRPSGIPDRFSGSNSGNTATLTISRVEVGDEADYYCQVWDSGDGNPRVFGGGTKLTVL", 4),
]

Consider the binder NOL226-2-D10 (eqIgG6 format) (antibody, V domains shown, as the VH of m4 (NOL162-1-F5) with A97V and F100L, both in the CDR3 of the VH; as the VL of m4 (NOL162-1-F5); also called final antibody; final candidate; source: Expi293F suspension cells, purified (HiTrap Fibro PrismA or Protein G HP)) VH: EVQLVETGGGVVQPGRSLRLSCAASGFTFSSYGMHWVRQAPGKGLEWVAVISYDGSNKYYADSVKGRFTISRDNSKNTLYLQMNSLRAEDTAVYYCVKGLKIQLWFAAFDIWGQGTMVTVSS VL: QSVLTQPPSVSVAPGQTARITCGGNNIGSKSVHWYQQKPGQAPVLVVYDDSDRPSGIPERFSGSNSGNTATLTISRVEAGDEADYYCQVWDSSSDPVVFGGGTKLTVL and give its recorded IC50.
4

Consider the binder NOL231-2-E2 (eqIgG6 format) (antibody, V domains shown, source: Expi293F suspension cells, purified (HiTrap Fibro PrismA or Protein G HP)) VH: QVQLQQSEGGVVQPGRSLRLSCAASGFTFSSYGMHWVRQAPGKGLEWLAVIWYDGSNKYYADSVKGRFTISRDNSKNTLYLQMNSLRAEDTAVYYCARGLFGRSYFDYWGQGTLVTVSS VL: SYELTQPPSVSVAPGQTAKITCEGDNIGSKSVHWYQQRPGQAPVLVVYDDTDRPSGIPDRFSGSNSGNTATLTISRVEVGDEADYYCQVWDSGDGHPRVFGGGTKLTVL and give its recorded IC50.
3

Consider the binder NOL225-2-C1 (eqIgG6 format) (antibody, V domains shown, source: Expi293F suspension cells, purified (HiTrap Fibro PrismA or Protein G HP)) VH: QVQLQQSGGGVVQPGRSLRLSCAASGFTFSSYGMHWVRQAPGKGLEWVAVIWYDGRNKYYADSVKGRFTISRDNSKNTLYLQMNSLRAEDTAVYYCARGLFGRSYFDYWGQGTLVTVSS VL: SYELTQPPSMSVAPGQTARIACEGDNIGSKSVHWYQQRPGQAPVLVVFDDTDRPSGIPDRFSGSNSGNTATLTISRVEVGDEADYYCQVWDSGDGHPRVFGGGTKLTVL and give its recorded IC50.
4
